target: K417N
Measured binding affinity fold change relative to RBD WT of individual entries
Observable: binding affinity fold change relative to RBD WT (fold)

{"Binder": "Nb36 (VHH) VHH: HVQLVESGGGLVQAGGSLTLTCAASGRTFSSETMDMGWFRQAPGKEREFVAADSWNDGSTYYADSVKGRFTISRDSAKNTLYLQMNSLKPEDTAVYYCAAETYSIYEKDDSWGYWGQGTQVTVSS", "Recorded Result": -2.94}
{"Binder": "Nb105 (VHH) VHH: HVQLVESGGGLVQAGGSLRLSCAVSGRTFSTYGMAWFRQAPGKERDFVATITRSGETTLYADSVKGRFTISRDNAKNTVYLQMNSLKIEDTAVYYCAVRRDSSWGYSRDLFEYDYWGQGTQVTVSS", "Recorded Result": -1.45}
{"Binder": "Nb34 (VHH) VHH: DVQLVESGGGLVQAGGSLRLSCAASGFTFSNYVMYWGRQAPGKGREWVSGIDSDGSDTAYASSVKGRFTISRDNAKNTLYLQMNNLKPEDTALYYCVKSKDPYGSPWTRSEFDDYWGQGTQVTVSS", "Recorded Result": -1.96}
{"Binder": "Nb95 (VHH) VHH: QVQLVESGGGLVQAGGSLRLSCAASGRTFSSYSMGWFRQAQGKEREFVATINGNGRDTYYTNSVKGRFTISRDDATNTVYLQMNSLKPEDTAIYYCAADKDVYYGYTSFPNEYEYWGQGTQVTVSS", "Recorded Result": 1.11}
